Reported Peak INa TB Ratio to Pers. INa by item:
# target.system: human Nav1.6 (Homo sapiens, UniProt Q9UQD0)
# Construct: HEK-293 cell lines stably expressing human Nav1.6 (NP_055006) were used; expressed in transfected cells
# Sequence (Q9UQD0 whole entry): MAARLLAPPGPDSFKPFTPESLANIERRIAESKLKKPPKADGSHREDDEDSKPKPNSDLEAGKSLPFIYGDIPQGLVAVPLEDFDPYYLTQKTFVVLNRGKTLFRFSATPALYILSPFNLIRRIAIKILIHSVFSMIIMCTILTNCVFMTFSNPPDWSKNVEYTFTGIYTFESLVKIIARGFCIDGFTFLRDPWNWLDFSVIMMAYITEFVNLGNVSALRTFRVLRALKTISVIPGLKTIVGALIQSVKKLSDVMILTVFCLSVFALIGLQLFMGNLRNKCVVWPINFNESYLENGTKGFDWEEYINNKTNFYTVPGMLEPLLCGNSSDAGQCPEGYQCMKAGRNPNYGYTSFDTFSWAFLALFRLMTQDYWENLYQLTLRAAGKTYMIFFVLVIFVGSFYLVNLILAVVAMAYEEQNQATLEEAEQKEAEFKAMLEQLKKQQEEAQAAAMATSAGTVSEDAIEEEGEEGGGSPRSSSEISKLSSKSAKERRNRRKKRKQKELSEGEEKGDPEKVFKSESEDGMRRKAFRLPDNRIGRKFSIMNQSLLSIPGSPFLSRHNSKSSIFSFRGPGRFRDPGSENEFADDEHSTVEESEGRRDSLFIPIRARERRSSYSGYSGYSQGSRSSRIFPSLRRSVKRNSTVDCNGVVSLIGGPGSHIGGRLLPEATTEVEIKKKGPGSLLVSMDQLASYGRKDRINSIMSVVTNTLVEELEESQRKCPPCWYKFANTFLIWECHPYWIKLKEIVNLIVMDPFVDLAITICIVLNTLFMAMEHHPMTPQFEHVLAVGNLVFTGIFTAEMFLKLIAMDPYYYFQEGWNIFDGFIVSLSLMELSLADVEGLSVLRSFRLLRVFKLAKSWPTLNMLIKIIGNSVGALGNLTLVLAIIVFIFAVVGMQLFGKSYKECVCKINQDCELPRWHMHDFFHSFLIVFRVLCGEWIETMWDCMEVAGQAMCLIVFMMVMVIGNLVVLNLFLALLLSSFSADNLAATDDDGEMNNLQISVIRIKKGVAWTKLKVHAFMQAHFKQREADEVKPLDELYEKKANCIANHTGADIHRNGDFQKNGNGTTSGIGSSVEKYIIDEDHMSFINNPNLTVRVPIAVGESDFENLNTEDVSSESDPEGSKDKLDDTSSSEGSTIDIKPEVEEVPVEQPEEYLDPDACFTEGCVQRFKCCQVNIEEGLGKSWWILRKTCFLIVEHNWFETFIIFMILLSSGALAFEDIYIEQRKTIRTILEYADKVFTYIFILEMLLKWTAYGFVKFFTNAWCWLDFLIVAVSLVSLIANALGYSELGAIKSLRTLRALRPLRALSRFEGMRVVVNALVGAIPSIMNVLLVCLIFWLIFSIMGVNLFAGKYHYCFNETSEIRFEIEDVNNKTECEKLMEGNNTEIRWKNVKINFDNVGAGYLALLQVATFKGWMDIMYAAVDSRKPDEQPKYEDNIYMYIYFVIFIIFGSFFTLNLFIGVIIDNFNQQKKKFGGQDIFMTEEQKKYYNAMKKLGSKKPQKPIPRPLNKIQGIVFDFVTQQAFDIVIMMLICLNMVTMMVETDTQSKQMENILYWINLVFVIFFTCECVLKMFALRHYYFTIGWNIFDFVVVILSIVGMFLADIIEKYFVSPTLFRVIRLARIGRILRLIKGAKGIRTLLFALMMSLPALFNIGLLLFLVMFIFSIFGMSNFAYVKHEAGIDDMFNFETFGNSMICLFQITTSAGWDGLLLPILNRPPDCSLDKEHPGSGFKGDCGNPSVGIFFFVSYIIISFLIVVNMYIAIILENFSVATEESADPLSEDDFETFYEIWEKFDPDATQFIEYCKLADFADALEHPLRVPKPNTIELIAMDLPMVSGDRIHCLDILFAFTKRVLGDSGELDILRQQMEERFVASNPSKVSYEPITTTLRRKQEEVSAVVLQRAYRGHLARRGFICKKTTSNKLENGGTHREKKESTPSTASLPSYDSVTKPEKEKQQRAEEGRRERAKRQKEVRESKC
# assay.remarks: Peak INa tonic block (TB), automated patch clamp in HEK cells
# Format: cell-based
# experimental.parameters: ratio of peak INa (TB) to persistent INa IC50

# example entries with known answers
[
  {
    "molecule": "NC(=O)O[C@@H](Cn1ncnn1)c1ccccc1Cl [Cenobamate, cenobamate]",
    "Peak INa TB Ratio to Pers. INa": 24
  },
  {
    "molecule": "NC(=O)N1c2ccccc2C=Cc2ccccc21 [Carbamazepine, carbamazepine]",
    "Peak INa TB Ratio to Pers. INa": 30
  },
  {
    "molecule": "NC(=O)N1c2ccccc2CC(=O)c2ccccc21 [Oxcarbazepine, oxcarbazepine]",
    "Peak INa TB Ratio to Pers. INa": 8
  }
]

Attention now turns to another entry.
Qu. What Peak INa TB Ratio to Pers. INa value was documented for this molecule, CCOC(F)(F)c1nnc2ccc(-c3cnc(OCC(F)(F)F)c(F)c3)cn12 ?
Ans. 68

* * *

# target.system: human Nav1.6 (Homo sapiens)
# Construct: HEK-293 cell lines stably expressing human Nav1.6 (NP_055006) were used; expressed in transfected cells
# assay.remarks: Peak INa use-dependent block (UDB-10 Hz), automated patch clamp in HEK cells
# Type: cell-based
# experimental.parameters: use-dependent block
endpoint.name: Peak INa UDB-10 Hz Hill slope

// worked examples, Peak INa UDB-10 Hz Hill slope included
[
  {
    "molecule": "Nc1nnc(-c2cccc(Cl)c2Cl)c(N)n1",
    "endpoint.name": "Peak INa UDB-10 Hz Hill slope",
    "measurement": "(1.0)"
  },
  {
    "molecule": "NC(=O)N1c2ccccc2C=Cc2ccccc21 [Carbamazepine, carbamazepine]",
    "endpoint.name": "Peak INa UDB-10 Hz Hill slope",
    "measurement": "(0.9)"
  },
  {
    "molecule": "NC(=O)O[C@@H](Cn1ncnn1)c1ccccc1Cl [Cenobamate, cenobamate]",
    "endpoint.name": "Peak INa UDB-10 Hz Hill slope",
    "measurement": "(0.7)"
  },
  {
    "molecule": "COC[C@@H](NC(C)=O)C(=O)NCc1ccccc1 [Lacosamide, lacosamide]",
    "endpoint.name": "Peak INa UDB-10 Hz Hill slope",
    "measurement": "(1.3)"
  }
]

We now examine a further molecule.
Qu. Would you kindly share the measured Peak INa UDB-10 Hz Hill slope for O=C1NC(=O)C(c2ccccc2)(c2ccccc2)N1 ?
Ans. (0.6)

* * *

# target.system: hNav1.6 (Homo sapiens, UniProt Q9UQD0)
# Construct: expressed in transfected cells; host or cells: HEK cells
# Sequence (Q9UQD0 whole entry): as above
# assay.remarks: Peak INa voltage-dependent block (VDB), automated patch clamp in HEK cells
# Type: cell-based
endpoint.name: Peak INa VDB Hill slope

Worked cases, answers included:
[
  {
    "compound": "COC[C@@H](NC(C)=O)C(=O)NCc1ccccc1 [Lacosamide, lacosamide]",
    "Peak INa VDB Hill slope": "(1.2)"
  },
  {
    "compound": "NC(=O)N1c2ccccc2C=Cc2ccccc21 [Carbamazepine, carbamazepine]",
    "Peak INa VDB Hill slope": "(0.9)"
  },
  {
    "compound": "Nc1nnc(-c2cccc(Cl)c2Cl)c(N)n1",
    "Peak INa VDB Hill slope": "(0.9)"
  },
  {
    "compound": "NC(=O)O[C@@H](Cn1ncnn1)c1ccccc1Cl [Cenobamate, cenobamate]",
    "Peak INa VDB Hill slope": "(0.9)"
  },
  {
    "compound": "O=C1NC(=O)C(c2ccccc2)(c2ccccc2)N1",
    "Peak INa VDB Hill slope": "(1.0)"
  }
]

Query compound follows.
Qu. What Peak INa VDB Hill slope appears in the records for this compound with hNav1.6 (Homo sapiens, UniProt Q9UQD0)? NC(=O)N1c2ccccc2CC(=O)c2ccccc21 [Oxcarbazepine, oxcarbazepine]
Ans. (1.1)

* * *

# target.system: human Nav1.6 (Homo sapiens, UniProt Q9UQD0)
# Construct: HEK-293 cell lines stably expressing human Nav1.6 (NP_055006) were used; expressed in transfected cells
# assay.remarks: ATX-II activated late (persistent) INa block, automated patch clamp in HEK cells
# Type: cell-based
# experimental.parameters: hNav1.6 in HEK cells
endpoint.name: Persistent INa Hill slope

See these solved cases before continuing.
[
  {
    "compound": "O=C1NC(=O)C(c2ccccc2)(c2ccccc2)N1 [Phenytoin, phenytoin]",
    "measurement": "(0.8)"
  },
  {
    "compound": "Nc1nnc(-c2cccc(Cl)c2Cl)c(N)n1 [Lamotrigine, lamotrigine]",
    "measurement": "(1.0)"
  },
  {
    "compound": "CCOC(F)(F)c1nnc2ccc(-c3cnc(OCC(F)(F)F)c(F)c3)cn12 [Compound 1]",
    "measurement": "(1.4)"
  },
  {
    "compound": "COC[C@@H](NC(C)=O)C(=O)NCc1ccccc1 [Lacosamide, lacosamide]",
    "measurement": "(0.9)"
  }
]

Qu. Recorded Persistent INa Hill slope of NC(=O)O[C@@H](Cn1ncnn1)c1ccccc1Cl [Cenobamate, cenobamate] , please.
Ans. (1.1)

Qu. GET /values?readout=Persistent INa Hill slope&item= NC(=O)N1c2ccccc2C=Cc2ccccc21 [Carbamazepine, carbamazepine]
Ans. (1.1)

Qu. Can you share its Persistent INa Hill slope? I mean this compound: NC(=O)N1c2ccccc2CC(=O)c2ccccc21 [Oxcarbazepine, oxcarbazepine]
Ans. (1.0)

* * *

Each item that follows carries a reported Peak INa VDB Ratio to Pers. INa.
# target.system: hNav1.6 (Homo sapiens, UniProt Q9UQD0)
# Construct: expressed in transfected cells; host or cells: HEK cells
# assay.remarks: Peak INa voltage-dependent block (VDB), automated patch clamp in HEK cells
# Format: cell-based
Lab note: record just the number, no unit beside it.

[
  {
    "compound": "COC[C@@H](NC(C)=O)C(=O)NCc1ccccc1 [Lacosamide, lacosamide]",
    "measurement": 0.3
  },
  {
    "compound": "NC(=O)N1c2ccccc2C=Cc2ccccc21 [Carbamazepine, carbamazepine]",
    "measurement": 0.6
  },
  {
    "compound": "O=C1NC(=O)C(c2ccccc2)(c2ccccc2)N1",
    "measurement": 0.8
  },
  {
    "compound": "NC(=O)O[C@@H](Cn1ncnn1)c1ccccc1Cl [Cenobamate, cenobamate]",
    "measurement": 0.9
  }
]

Proceed to the following item.
Qu. # value lookup — system hNav1.6 (Homo sapiens, UniProt Q9UQD0), readout Peak INa VDB Ratio to Pers. INa, item NC(=O)N1c2ccccc2CC(=O)c2ccccc21 [Oxcarbazepine, oxcarbazepine]
Ans. 0.3

The measured values listed here are drawn from patent US20250288570A1.
